# assay-procedure: High humidity test (stability study)
# Format: physicochemical
# measurement-context: 25° C., 5 days
# Method: High humidity test: an appropriate amount of sample was put in a weighing bottle in the form of a thin layer of ≤5 mm, under a temperature of 25° C. for 10 days. Appearance, impurity and purity were tested respectively at the 5th and 10th day. If the moisture-absorption weight of the sample gains more than 5%, then the sample needs to be retested in the same manner under the conditions of 25° C. and RH75%±5%. […]
observed-property: Appearance

Data request: Need Appearance, item COC(=O)C1=C(CN2CCOC[C@H]2C(=O)O)N=C(c2nccs2)N[C@H]1c1ccc(F)cc1Cl.O=C(O)C(O)C(O)C(=O)O
Data returned: yellow

Data request: Need Appearance, item Br.COC(=O)C1=C(CN2CCOC[C@H]2C(=O)O)N=C(c2nccs2)N[C@H]1c1ccc(F)cc1Cl
Data returned: yellow

Data request: Need Appearance, item COC(=O)C1=C(CN2CCOC[C@H]2C(=O)O)N=C(c2nccs2)N[C@H]1c1ccc(F)cc1Cl.Cl
Data returned: yellow

* * *

# assay-procedure: High temperature test (stability study)
# Type: physicochemical
# measurement-context: High temperature, 60° C., 10 days
observed-property: Purity (%)
Please reply with the bare figure in % and do not write the unit itself.

Data request: Need Purity (%), item Br.COC(=O)C1=C(CN2CCOC[C@H]2C(=O)O)N=C(c2nccs2)N[C@H]1c1ccc(F)cc1Cl
Data returned: 99.63

Data request: Need Purity (%), item COC(=O)C1=C(CN2CCOC[C@H]2C(=O)O)N=C(c2nccs2)N[C@H]1c1ccc(F)cc1Cl.O=C(O)C(O)C(O)C(=O)O
Data returned: 99.84

Data request: Need Purity (%), item COC(=O)C1=C(CN2CCOC[C@H]2C(=O)O)N=C(c2nccs2)N[C@H]1c1ccc(F)cc1Cl.Cl
Data returned: 99.43

Proceed to the following item.
Data request: Need Purity (%), item COC(=O)C1=C(CN2CCOC[C@H]2C(=O)O)NC(c2nccs2)=N[C@H]1c1ccc(F)cc1Cl
Data returned: 95.65

* * *

# assay-procedure: High humidity test (stability study)
# Type: physicochemical
# measurement-context: 25° C., 5 days
# Description: High humidity test: an appropriate amount of sample was put in a weighing bottle in the form of a thin layer of ≤5 mm, under a temperature of 25° C. for 10 days. Appearance, impurity and purity were tested respectively at the 5th and 10th day. If the moisture-absorption weight of the sample gains more than 5%, then the sample needs to be retested in the same manner under the conditions of 25° C. and RH75%±5%. […]
Purity (%) reference
Please reply with the bare figure in % and do not write the unit itself.

Data request: Need Purity (%), item COC(=O)C1=C(CN2CCOC[C@H]2C(=O)O)N=C(c2nccs2)N[C@H]1c1ccc(F)cc1Cl.Cl
Data returned: 99.65

---
Data request: Need Purity (%), item COC(=O)C1=C(CN2CCOC[C@H]2C(=O)O)NC(c2nccs2)=N[C@H]1c1ccc(F)cc1Cl
Data returned: 97.51

Data request: Need Purity (%), item Br.COC(=O)C1=C(CN2CCOC[C@H]2C(=O)O)N=C(c2nccs2)N[C@H]1c1ccc(F)cc1Cl
Data returned: 99.68

Data request: Need Purity (%), item COC(=O)C1=C(CN2CCOC[C@H]2C(=O)O)N=C(c2nccs2)N[C@H]1c1ccc(F)cc1Cl.O=C(O)C(O)C(O)C(=O)O
Data returned: 99.84
